Target Entity: HpMutS2-G338R (Helicobacter pylori 26695, UniProt O25338 1-762, G338R)
Experiment: EMSA; 1 mM ADP; EMSA: 0.16 nM DNA, buffer A (50 mM Tris pH 8.0, 50 mM NaCl, 1 mM DTT per Fig. S3 legend) with 0.1 ug/ul BSA, NaCl 110 mM, no divalent metal stated, 30 min on ice, 8% native PAGE at 4 C; nucleotides 1 mM; Hill-slope fit
Setup Conditions: protein: recombinant; tags: C-terminal His6; chain copies: 4; label: 5'-32P
Value Kind: Kd (nM)

> print(dat)
                                     binder  obs.value
1  ssDNA 63-mer (ODN4) (ssDNA) DNA: ATCGATAGTCGGATCCTCCAGACAGCTCCATGTAGCAAGGCACTGGTAGAATTCGGCAGCGTC       23.9
